Values were extracted from ChEMBL document CHEMBL3797047.

Parameter log10 of IC50, tested on Death-associated protein kinase 1 (Homo sapiens, UniProt P53355), listed per item.
Sequence (P53355 whole entry): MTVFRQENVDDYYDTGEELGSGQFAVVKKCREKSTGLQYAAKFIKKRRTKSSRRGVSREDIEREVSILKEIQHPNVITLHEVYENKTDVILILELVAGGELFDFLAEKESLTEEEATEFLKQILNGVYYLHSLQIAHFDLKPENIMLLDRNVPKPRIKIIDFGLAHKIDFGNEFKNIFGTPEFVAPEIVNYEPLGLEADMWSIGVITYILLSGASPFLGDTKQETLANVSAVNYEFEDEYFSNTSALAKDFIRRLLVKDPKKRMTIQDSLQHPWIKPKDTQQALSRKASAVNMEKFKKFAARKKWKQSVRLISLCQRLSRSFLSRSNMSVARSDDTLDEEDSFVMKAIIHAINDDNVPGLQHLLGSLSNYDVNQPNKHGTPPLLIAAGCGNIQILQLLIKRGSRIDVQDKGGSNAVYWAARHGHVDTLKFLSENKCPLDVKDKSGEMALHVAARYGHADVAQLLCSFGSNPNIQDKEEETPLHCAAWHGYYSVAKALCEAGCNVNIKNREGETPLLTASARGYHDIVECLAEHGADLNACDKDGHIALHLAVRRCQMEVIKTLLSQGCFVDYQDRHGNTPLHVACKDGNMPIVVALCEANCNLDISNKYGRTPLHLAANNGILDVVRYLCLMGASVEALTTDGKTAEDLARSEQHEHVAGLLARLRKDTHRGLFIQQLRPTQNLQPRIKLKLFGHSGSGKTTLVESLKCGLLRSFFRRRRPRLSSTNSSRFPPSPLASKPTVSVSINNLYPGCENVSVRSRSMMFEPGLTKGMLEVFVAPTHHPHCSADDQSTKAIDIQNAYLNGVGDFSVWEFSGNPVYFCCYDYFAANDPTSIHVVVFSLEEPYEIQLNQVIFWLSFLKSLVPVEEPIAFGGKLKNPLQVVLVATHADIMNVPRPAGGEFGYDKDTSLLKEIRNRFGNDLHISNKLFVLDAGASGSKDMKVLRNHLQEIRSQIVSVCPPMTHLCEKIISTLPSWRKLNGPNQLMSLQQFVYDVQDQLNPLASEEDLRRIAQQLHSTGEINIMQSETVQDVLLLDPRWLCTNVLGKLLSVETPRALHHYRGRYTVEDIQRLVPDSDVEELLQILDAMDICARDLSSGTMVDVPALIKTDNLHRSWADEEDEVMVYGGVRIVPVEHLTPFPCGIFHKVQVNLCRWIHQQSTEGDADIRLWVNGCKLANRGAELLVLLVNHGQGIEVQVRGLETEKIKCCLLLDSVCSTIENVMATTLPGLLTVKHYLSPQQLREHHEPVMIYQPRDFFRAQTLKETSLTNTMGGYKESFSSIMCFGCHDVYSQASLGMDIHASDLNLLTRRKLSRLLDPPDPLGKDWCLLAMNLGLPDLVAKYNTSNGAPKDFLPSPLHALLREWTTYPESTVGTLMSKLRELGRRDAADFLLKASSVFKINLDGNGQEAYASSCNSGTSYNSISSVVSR
All values: base-10 log of IC50 in nM.

Below, each entry is followed by its recorded log10 of IC50 result.
SMILES_STRUCTURE | TESTED_SYSTEM | log10 of IC50
CC(C)(C)C(=O)Nc1ccc2c(c1)/C(=C1/Nc3ccccc3/C1=N\O)C(=O)N2 | Death-associated protein kinase 1 (Homo sapiens, UniProt P53355) | 2.85
CCCC(=O)Nc1ccc2c(c1)/C(=C1/Nc3ccccc3/C1=N\O)C(=O)N2 | Death-associated protein kinase 1 (Homo sapiens, UniProt P53355) | 2.71
O=C1Nc2ccc(NC(=O)C3CC3)cc2/C1=C1/Nc2ccccc2/C1=N\O | Death-associated protein kinase 1 (Homo sapiens, UniProt P53355) | 2.15
CCCCC(=O)Nc1ccc2c(c1)/C(=C1/Nc3ccccc3/C1=N\O)C(=O)N2 | Death-associated protein kinase 1 (Homo sapiens, UniProt P53355) | 3.26

Under Death-associated protein kinase 1 (Homo sapiens, UniProt P53355), report log10 of IC50 for "CC(C)=CC(=O)Nc1ccc2c(c1)/C(=C1/Nc3ccccc3/C1=N\O)C(=O)N2"
2.65
